run-description: Pharmacokinetics and biodistribution after 3% PS gel on outer surface of eyelid (Example 26)
Assay type: in vivo, rabbit
setup-conditions: male, New Zealand White, rabbit, topical; AH (aqueous humor), 24 h; rabbits, 3% PS gel on outer surface of upper eyelids; read-out: Amount in tissue, Mean ± SEM
measured-metric: concentration at 24 h (nM)
Write the number in nM without appending the unit.

CCOP(=O)(OCC)OCCCCOC(=O)CC1=C(C)/C(=C/c2ccc([S+](C)[O-])cc2)c2ccc(F)cc21 (centres unmarked) [PS, phosphosulindac]; 0

Then this molecule:
Form field: reported concentration at 24 h of CC1=C(CC(=O)O)c2cc(F)ccc2/C1=C\c1ccc([S+](C)[O-])cc1 (centres unmarked) [sulindac]
0

====

run-description: Pharmacokinetics and biodistribution of PS upon oral administration (Example 27)
Type: in vivo, rat
setup-conditions: Sprague-Dawley, rat; stomach; rats, single oral dose of PS 250 mg/kg; read-out: Cmax, Mean ± SEM
measured-metric: Cmax (µM)
The figure you give is taken to be in µM; do not add the unit.

Request the reported Cmax associated with CCOP(=O)(OCC)OCCCCOC(=O)CC1=C(C)/C(=C/c2ccc([S+](C)[O-])cc2)c2ccc(F)cc21 (stereo not shown)
661

====

run-description: Pharmacokinetics and biodistribution after 3% PS gel on outer surface of eyelid (Example 26)
Assay type: in vivo, rabbit
setup-conditions: male, New Zealand White, rabbit, topical or ocular; eyelid; rabbits, 3% PS gel on outer surface of upper eyelids
measured-metric: half-life (h)
Please state the figure in h; there is no need to write the unit.

CCOP(=O)(OCC)OCCCCOC(=O)CC1=C(C)/C(=C/c2ccc([S+](C)[O-])cc2)c2ccc(F)cc21 (centres unmarked); 14.4

For CC1=C(CC(=O)O)c2cc(F)ccc2/C1=C\c1ccc([S+](C)[O-])cc1 (centres unmarked) , what is its reported half-life?
1.1

====

run-description: Pharmacokinetics and biodistribution after topical PS 8% ointment to hind paws (Example 25)
Type: in vivo, mouse
setup-conditions: mouse, in vivo, topical or ocular, 50 μl per paw of PS 8% ointment, paw skin; normal mice, topical PS 8% ointment to hind paws
measured-metric: half-life
Report the figure along with its unit, number first.

Look up half-life: CCOP(=O)(OCC)OCCCCOC(=O)CC1=C(C)/C(=C/c2ccc([S+](C)[O-])cc2)c2ccc(F)cc21 (stereo not shown)
966 min

====

run-description: Pharmacokinetics and biodistribution after 3% PS gel on outer surface of eyelid (Example 26)
Format: in vivo, rabbit
setup-conditions: male, New Zealand White, rabbit, topical; conjunctiva, 4 h; rabbits, 3% PS gel on outer surface of upper eyelids; read-out: Amount in tissue, Mean ± SEM
measured-metric: concentration at 4 h (µM)
Hi! Could you send only the number? It should be in µM, unit omitted.

CC1=C(CC(=O)O)c2cc(F)ccc2/C1=C\c1ccc([S+](C)[O-])cc1 (centres unmarked); 0.1

Lab note: next compound to report on.
What value of concentration at 4 h has been recorded for this entry: CCOP(=O)(OCC)OCCCCOC(=O)CC1=C(C)/C(=C/c2ccc([S+](C)[O-])cc2)c2ccc(F)cc21 (centres unmarked)
6.1

====

run-description: Pharmacokinetics and biodistribution after 3% PS gel on outer surface of eyelid (Example 26)
Format: in vivo, rabbit
setup-conditions: male, New Zealand White, rabbit, topical; conjunctiva, 1 h; rabbits, 3% PS gel on outer surface of upper eyelids; read-out: Amount in tissue, Mean ± SEM
// values below are reported concentration at 1 h

CC1=C(CC(=O)O)c2cc(F)ccc2/C1=C\c1ccc([S+](C)[O-])cc1 (centres unmarked); 200 nM

Give its concentration at 1 h value. Item: CCOP(=O)(OCC)OCCCCOC(=O)CC1=C(C)/C(=C/c2ccc([S+](C)[O-])cc2)c2ccc(F)cc21 (centres unmarked)
1800 nM
